Data provenance: a collection of fitness landscapes (doi:10.1126/science.1257360)

B1: PhoQ; a variant is named by its letters at X, in order, P23837 (parent)
chain: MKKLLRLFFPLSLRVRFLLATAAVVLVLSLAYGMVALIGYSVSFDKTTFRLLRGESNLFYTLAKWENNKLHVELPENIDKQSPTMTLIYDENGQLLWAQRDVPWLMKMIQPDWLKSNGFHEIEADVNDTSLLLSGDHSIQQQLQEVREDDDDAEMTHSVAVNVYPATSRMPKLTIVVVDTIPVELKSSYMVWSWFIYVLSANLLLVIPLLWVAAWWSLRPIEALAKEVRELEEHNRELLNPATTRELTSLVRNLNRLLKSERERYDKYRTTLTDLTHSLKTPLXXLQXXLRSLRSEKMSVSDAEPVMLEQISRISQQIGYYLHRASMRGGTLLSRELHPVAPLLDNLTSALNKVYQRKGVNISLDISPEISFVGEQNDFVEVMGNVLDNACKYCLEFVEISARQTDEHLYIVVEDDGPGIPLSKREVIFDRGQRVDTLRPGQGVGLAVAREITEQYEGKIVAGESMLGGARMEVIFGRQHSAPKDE

- Variants of: B1
- measurement description: enrichment ratio after two sorts for PhoP signalling (ratio (wild type AVST 3.29)); higher = more functional
- condition parameters: with PhoP (E. coli)
The full ranking holds about 140,000 sequences; the median of “enrichment ratio after two sorts for PhoP signalling” is about 0, and the highest 2% start at about 11. This is one part of a sample in which the highest values are shown more often than they occur.
observed property: enrichment ratio

# example entries with known answers
TQIE | ≤ 0.25
GEYP | ≤ 0.25
TQCA | 17.6
IFMF | ≤ 0.25
TQCG | 14.9

Report enrichment ratio for TQGG please.
1.42

What do we get for DWCG ?
≤ 0.25

What do we get for SQIR ?
≤ 0.25

What do we get for NWHP ?
≤ 0.25

What do we get for PAWD ?
≤ 0.25

What do we get for ATIM ?
19.5
